Task for the reader: assign each of the following compounds its reported phenotypic distance.
# Tested on: E34 (patient-derived glioblastoma stem cells of proneural subtype)
# procedureDetails: phenotypic distance (Euclidean, principal components) from DMSO controls (arbitrary units); higher = stronger morphological change;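 note: cell Painting imaging in 384-well plates, CellProfiler features reduced to at least 20 principal components, Euclidean distance versus same-plate DMSO vehicle wells (0.1% v/v), median over six images per well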
# testConditions: 333.333 nM; exposure time: 72 h
Where a name gives a salt, the structure may show the parent alone.
Numbers only.

Please review the following examples before continuing.
compound	phenotypic distance
O=c1c2ccccc2[se]n1-c1ccccc1	0.532
COc1cc2nc(N3CCN(C(=O)c4ccco4)CC3)nc(N)c2cc1OC [Prazosin hydrochloride]	0.638
COC(=O)Nc1nc2cc(C(=O)c3cccs3)ccc2[nH]1	5.97

Items follow; give phenotypic distance for each.
1. Cc1[nH]nc(C(F)(F)F)c1Cc1sc2c(c1C(=O)N1C[C@](C)(O)CO1)c(=O)n(C)c(=O)n2C(C)C
2. OCCN1C[C@H](O)[C@@H](O)[C@H](O)[C@H]1CO

Result:
1.47
0.456

Items follow; give phenotypic distance for each.
1. COc1cc([C@@H]2c3cc4c(cc3[C@@H](O[C@@H]3O[C@@H]5CO[C@@H](C)O[C@H]5[C@H](O)[C@H]3O)[C@H]3COC(=O)[C@H]23)OCO4)cc(OC)c1O [Etoposide]
2. Cc1cc(C)c(CN2CCc3c(Cl)cc(-c4c(C)noc4C)c(Cl)c3C2=O)c(=O)[nH]1

Result:
1: 2.75; 2: 0.552

----------
Task for the reader: assign each of the following molecules its reported phenotypic distance.
# Test system: E28 (patient-derived glioblastoma stem cells of classical subtype)
# procedureDetails: phenotypic distance (Euclidean, principal components) from DMSO controls (arbitrary units); higher = stronger morphological change
# testConditions: 333.3 nM; exposure time: 72 h
Answers are plain numbers.

molecule	recordedResult
OC[C@H]1NC[C@H](O)[C@@H](O)[C@@H]1O	0.769
COc1cc(NS(C)(=O)=O)ccc1Nc1c2ccccc2nc2ccccc12	3.24
CC(C)C[C@@H](C(=O)N[C@H](C(=O)OC1CCCC1)c1ccccc1)[C@H](O)C(=O)NO	1.68
NC(=O)c1ccccc1 [Benzamide]	0.871
CC(=O)O[C@H]1C[C@H](O[C@H]2[C@@H](O)C[C@H](O[C@H]3[C@@H](O)C[C@H](O[C@H]4CC[C@@]5(C)[C@H](CC[C@@H]6[C@@H]5C[C@@H](O)[C@]5(C)[C@@H](C7=CC(=O)OC7)CC[C@]65O)C4)O[C@@H]3C)O[C@@H]2C)O[C@H](C)[C@H]1O[C@@H]1O[C@H](CO)[C@@H](O)[C@H](O)[C@H]1O [Lanatoside C]	3.21
CCn1c(-c2nonc2N)nc2cnc(Oc3cccc(NC(=O)c4ccc(OCCN5CCOCC5)cc4)c3)cc21	2.41
COc1c(N2CCNC(C)C2)c(F)cc2c(=O)c(C(=O)O)cn(C3CC3)c12 (centres undefined)	0.675
COc1cc2c(cc1-c1c(C)noc1C)ncc1[nH]c(=O)n([C@H](C)c3ccccn3)c12	1.35

Problem: Report phenotypic distance, nothing else, for this molecule: CCOC(=O)C1=C(C)NC(C)=C(C(=O)OCC)C1c1c(F)c(F)c(F)c(F)c1F
Result: 0.703

----------
Task for the reader: assign each of the following compounds its reported phenotypic distance.
# System: E21 (patient-derived glioblastoma stem cells of mesenchymal subtype)
# procedureDetails: phenotypic distance (Euclidean, principal components) from DMSO controls (arbitrary units); higher = stronger morphological change
# testConditions: 4.1 nM; exposure time: 72 h
Where a name gives a salt, the structure may show the parent alone.

Please review the following examples before continuing.
compound	phenotypic distance
CNCCc1ccccn1 [Betahistine mesylate]	1.28
COc1ccc([C@@H]2CC(=O)c3c(O)cc(O[C@@H]4O[C@H](CO[C@@H]5O[C@@H](C)[C@H](O)[C@@H](O)[C@H]5O)[C@@H](O)[C@H](O)[C@H]4O)cc3O2)cc1O	0.723
C=CC(=O)Nc1cccc(Oc2nc(Nc3ccc(N4CCN(C)CC4)cc3)nc3ccsc23)c1	0.923

Items follow; give phenotypic distance for each.
1. CC(=O)O[C@H]1C[C@H](O[C@H]2[C@@H](O)C[C@H](O[C@H]3[C@@H](O)C[C@H](O[C@H]4CC[C@@]5(C)[C@H](CC[C@@H]6[C@@H]5C[C@@H](O)[C@]5(C)[C@@H](C7=CC(=O)OC7)CC[C@]65O)C4)O[C@@H]3C)O[C@@H]2C)O[C@H](C)[C@H]1O[C@@H]1O[C@H](CO)[C@@H](O)[C@H](O)[C@H]1O [Lanatoside C]
2. S=c1[nH]cnc2nc[nH]c12
3. COc1cc([C@@H]2c3cc4c(cc3[C@@H](O[C@@H]3O[C@@H]5CO[C@@H](c6cccs6)O[C@H]5[C@H](O)[C@H]3O)[C@H]3COC(=O)[C@H]23)OCO4)cc(OC)c1O [Teniposide]

Result:
[2.87, 0.78, 0.843]
